Subject of test: T1, native human MET on living human cells (human, UniProt P08581 25-1390)
T1 construct: whole, on cells; also called Human cells (A549); HPAF-II
Assay details: flow cytometry, A549 cells
Reported EMAX (% relative to control) values are given for each entry in this list.
Lab book: enter the figure in %, no units written.

In one line, give reported EMAX (% relative to control) of the entry chimeric llama-human IgG1 mAb 71D6 (antibody, V domains shown) VH: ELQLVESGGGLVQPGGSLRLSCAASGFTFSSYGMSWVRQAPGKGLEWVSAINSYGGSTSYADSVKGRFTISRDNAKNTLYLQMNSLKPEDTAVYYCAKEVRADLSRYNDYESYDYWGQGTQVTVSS VL: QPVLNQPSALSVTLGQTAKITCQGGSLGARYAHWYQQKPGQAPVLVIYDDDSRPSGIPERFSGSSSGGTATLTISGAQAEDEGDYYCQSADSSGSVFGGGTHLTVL .
113

In one line, give reported EMAX (% relative to control) of the entry chimeric llama-human IgG1 mAb 76G7 (antibody, V domains shown) VH: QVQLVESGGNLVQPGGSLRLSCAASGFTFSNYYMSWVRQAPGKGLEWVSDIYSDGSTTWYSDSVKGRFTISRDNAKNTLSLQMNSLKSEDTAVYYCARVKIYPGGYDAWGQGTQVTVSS VL: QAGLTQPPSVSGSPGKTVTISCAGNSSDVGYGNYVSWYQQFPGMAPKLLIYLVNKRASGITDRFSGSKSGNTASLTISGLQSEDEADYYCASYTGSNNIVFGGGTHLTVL .
121

In one line, give reported EMAX (% relative to control) of the entry chimeric llama-human IgG1 mAb 71G3 (antibody, V domains shown) VH: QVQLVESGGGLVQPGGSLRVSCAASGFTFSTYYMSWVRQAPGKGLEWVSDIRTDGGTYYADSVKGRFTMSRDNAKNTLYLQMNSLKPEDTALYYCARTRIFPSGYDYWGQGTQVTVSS VL: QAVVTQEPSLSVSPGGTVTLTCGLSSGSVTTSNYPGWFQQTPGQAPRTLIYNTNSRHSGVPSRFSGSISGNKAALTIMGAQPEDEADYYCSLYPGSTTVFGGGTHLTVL .
117
